Entry source: paper PMC7195332

System Name: CypD (30-207 aa, human recombinant) (Homo sapiens, UniProt P30405)
Sequence (P30405 30-207): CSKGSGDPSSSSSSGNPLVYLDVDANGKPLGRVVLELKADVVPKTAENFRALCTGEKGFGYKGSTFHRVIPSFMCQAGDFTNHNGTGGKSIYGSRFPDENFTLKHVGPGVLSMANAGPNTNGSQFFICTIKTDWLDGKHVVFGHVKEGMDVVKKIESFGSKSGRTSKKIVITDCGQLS
Run Description: Cyclophilin D biochemical FP assay
Format: binding
Property Measured: IC50 (µM)
# output: bare number, implied unit µM

Report IC50 for CCN1Cc2cc(CCC(=O)NCC(=O)N3CCC[C@@H]3c3ccccc3SC)ccc2NCCC1=O [compound 22] 4.1

Quickly give me recorded IC50 for CCN1Cc2cc(CNC(=O)NCC(=O)N3CCC[C@@H]3c3ccccc3SC)ccc2NCCC1=O [compound 20] 0.19

Answer with the recorded IC50 of CSc1ccccc1[C@H]1CCCN1C(=O)CN(C)C(=O)NCc1ccc2c(c1)[C@H]1C[C@@H](N2)[C@H](O)CO1 [compound 18] only. 10

====

System Name: Recombinant human Cyclophilin D protein (amino acids 44-207, K175I) (Homo sapiens, UniProt P30405, K175I)
Sequence (P30405 44-207 K175I): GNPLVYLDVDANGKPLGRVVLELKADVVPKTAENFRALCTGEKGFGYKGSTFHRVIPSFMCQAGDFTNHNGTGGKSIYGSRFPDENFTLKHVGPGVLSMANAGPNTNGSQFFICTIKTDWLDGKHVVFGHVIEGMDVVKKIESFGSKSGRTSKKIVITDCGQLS
Run Description: CypD SPR binding assay
Applied Conditions: fragment hits
Please go through the items and note down their CypD LE (ligand binding efficiency based on the SPR KDs).
Give a plain numeric answer without units written out.

Consider the compound "O=C(NCc1ccccn1)C(=O)NC1CCCC1" and give its recorded CypD LE (ligand binding efficiency based on the SPR KDs). 0.22

// fetch CypD LE (ligand binding efficiency based on the SPR KDs) given entry "CCN1Cc2cc3c(cc2NCCC1=O)OCO3" 0.16

Using the record for "O[C@@H]1CO[C@@H]2C[C@H]1Nc1ccc(F)cc12" , state its measured CypD LE (ligand binding efficiency based on the SPR KDs). 0.2

Give the measured CypD LE (ligand binding efficiency based on the SPR KDs) for "CCn1nnc(NC(=O)c2ccccc2)n1" 0.21

====

System Name: CypD (30-207 aa, human recombinant) (Homo sapiens)
Run Description: Cyclophilin D biochemical FP assay
Property Measured: log10(IC50) (log10 of the value in µM)
Record value = log10 of IC50 given in µM.

Report log10(IC50) for Nc1ccc(CCNC(=O)CN2C(=O)C3C4CCC(C4)C3C2=O)cc1 (stereo not shown) 2.69

Hello, please tell me recorded log10(IC50) for this one: "CSc1ccccc1[C@H]1CCCN1C(=O)CNC(=O)CCc1ccc2c(c1)[C@@H]1C[C@H](N2)[C@H](O)CO1" 1.73

Look up log10(IC50) of "O=C(CN1C(=O)[C@@H]2[C@@H]3CC[C@@H](C3)[C@@H]2C1=O)NCc1ccc2c(c1)[C@H]1C[C@@H](N2)[C@H](O)CO1" and report it. 0.23

Please report log10(IC50) for the following compound: "O=C(CN1C(=O)[C@@H]2[C@H]3CC[C@H](C3)[C@@H]2C1=O)NCc1ccc2c(c1)[C@H]1C[C@@H](N2)[C@H](O)CO1" -0.13

For CSc1ccccc1[C@H]1CCCN1C(=O)CNC(=O)NCc1ccc(N)cc1 [compound 2, reference compound] , write its log10(IC50). -0.12

====

System Name: CypD (30-207 aa, human recombinant) (Homo sapiens)
Run Description: Cyclophilin D biochemical FP assay
Would you kindly list IC50 for each of these compounds?
Dear colleague, please return just the value in µM, with no unit written.

Specify measured IC50 for CCN1Cc2cc(CNC(=O)CN3C(=O)[C@@H]4[C@H]5CC[C@H](C5)[C@@H]4C3=O)ccc2NCCC1=O [compound 34] . 80

Tell me IC50 reported for O=C(NCc1ccc2c(c1)[C@@H]1C[C@H](N2)[C@H](O)CO1)C(=O)NC1CCCC1 [compound 30] 870
